Data credit: PubChem BioAssay (NCATS)

Please respond with reported Potency for every item in the list.
experimental.details: Cell Viability - MRC5 (AID 434);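 also: potency is read from the fitted curve at half-maximal effect; cells exposed to compound for 40 hours at 37 °C; potency reflects cytotoxicity seen as loss of intracellular ATP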
test.context: MRC5 lung fibroblast viability, qHTS
Inconclusive results are not listed. Active and inactive are the calls of the source. Calls follow the shape of the full dose curve.

// recorded Potency for CN1[C@H]2CC(OC(=O)[C@H](CO)c3ccccc3)C[C@H]1[C@H]1O[C@H]12 (some centres not stated) : > 92 µM (inactive)

Kindly note the recorded Potency for CCC(C)Nc1ccc(NC(C)CC)cc1 (configuration not stated) , which is 20.7 µM (active)

Please fill in: Potency reported for "O=C(OCC(COC(=O)c1ccccc1)(COC(=O)c1ccccc1)COC(=O)c1ccccc1)c1ccccc1" = > 92 µM (inactive)

Entry "O=Cc1ccc(Cl)c(Cl)c1" — recorded Potency = > 92 µM (inactive)

# Potency of "Cc1cc(O)c(C(C)(C)C)cc1Sc1cc(C(C)(C)C)c(O)cc1C" = 40.2 µM (active)

Measured Potency, c1cc(OCC2CO2)cc(OCC2CO2)c1 (configuration not stated) : 34.7 µM (active)

get_value(item= "CC/C(=C(\c1ccccc1)c1ccc(OCCN(C)C)cc1)c1ccc(O)cc1" , readout=Potency) returns 43.3 µM (active)

###

Tested on: CP335
experimental.details: qHTS profiling for inhibitors of Plasmodium falciparum proliferation (AID 504749); also: nearly all actives have a fitted effect of over 60% in size
test.context: P. falciparum in erythrocytes, SYBR Green DNA, 72 h; series mostly up to 28.7 µM
Inconclusive results are not listed. Active and inactive are the calls of the source. Calls come from the whole dose curve; as a rule, active = well fitted inhibition curve with a large enough effect; inconclusive = small, poorly fitted or top-dose-only effect; inactive = flat fitted curve, though single readings scatter.
API: response.call in active, inactive

What classification did "Clc1ccc(CS[C@@H](Cn2ccnc2)c2ccc(Cl)cc2Cl)cc1" end up with in this test?
active

Outcome logged for Cc1cn([C@H]2CC(F)[C@@H](CO)O2)c(=O)[nH]c1=O (stereo not given in full) in this assay:
inactive

Hello, I am checking results. What call was entered for "CCCC[C@H](O)c1ccccc1" ?
inactive

For CCC1OC(=O)C[C@@H](O)[C@H](C)[C@@H](OC2OC(C)CC(N(C)C)C2O)[C@@H](CC=O)C[C@@H](C)C(=O)/C=C/[C@]2(C)OC2C1C (stereo not given in full) , what call appears in the results of this test?
active

Kindly provide the recorded test outcome for the following molecule: "Cc1cnc(C(=O)O)cn1"
inactive

###

experimental.details: Stat Signaling Pathway (AID 446);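 also: ME-180 cervical cancer cells given 40 pM IL-6 alongside compound; SIE-controlled beta-lactamase reporter measured as 460/530 nm FRET emission ratio; % is scaled to controls: 0 for no effect and ±100 for the full control effect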
test.context: ME-180 (cervical carcinoma) SIE beta-lactamase reporter, IL-6 stimulated, 5 h; at 17.2 µM (top of the series) unless noted
Inconclusive results are not listed. Active and inactive are the calls of the source. Calls follow the shape of the dose curve; as a rule, active = well fitted curve in either direction with a large enough effect (not every such curve was filed as active); inconclusive = small, poorly fitted or top-dose-only effect, or another doubt; inactive = flat fitted curve, though single readings scatter.
Field: activity, negative = inhibition. Provide a value for each of the compounds that follow.

get_value(item= "CC(C)OC(=O)[C@H]1[C@H](c2ccc(Cl)cc2)[C@@](C#N)(C(N)=O)[C@@H]2C=CC(C(N)=O)=CN21" , readout=activity, negative = inhibition) returns -11.5% (inactive)

Consider CC(NC(=O)OC(C)(C)C)C(=O)Oc1ccc2ccc(=O)oc2c1 (stereo not drawn) . Its measured activity, negative = inhibition is 10.7% (inactive)

Looking up "Cn1c(=O)c2c(nc(Br)n2Cc2ccc3ccccc3c2)n(C)c1=O" , I see its activity, negative = inhibition listed as -5.3% (inactive)

activity, negative = inhibition reported for this compound "CCCc1nnc(SCc2ccc(OCC)cc2)n1N" : 10.4% (inactive)

// field: activity, negative = inhibition; key: "Clc1ccc(-c2cn3c(n2)CCC3)cc1" ; value = 7.31% (inactive)

For record CC(=O)N1CCN(C2c3cccc4cccc(c34)C2NS(=O)(=O)c2ccccc2)CC1 (stereo not drawn) the listed activity, negative = inhibition is 2.23% (inactive)

The value of activity, negative = inhibition measured for the compound "O=S(=O)(c1ccccc1)N1CCC(N2CCN(c3ccccc3)CC2)CC1" turned out to be 5.78% (inactive)

For reference, reported activity, negative = inhibition for "C/C=C1\C(=O)C[C@@H]2[C@@H]3CCC4=CC(=O)CC[C@@]4(C)[C@H]3CC[C@@]12C" stands at 7.49% [at 38 µM] (inactive)

Record summary for "CCCCCOc1ccc(Cl)cc1CN1CCOCC1" : reported activity, negative = inhibition = 4.37% (inactive)

# activity, negative = inhibition of "O=c1cc(-c2ccco2)nc(-c2cccs2)o1" = 8.1% (inactive)

Notebook: C=C(C)CC1N(c2cccc(OC)c2)C(=O)[C@@H]2C(C(=O)O)[C@H]3C=C[C@@]12O3 (stereo partly drawn) , activity, negative = inhibition read as 3.15% (inactive)

Briefly, activity, negative = inhibition measured for COc1cccc(Cn2c(OCC3CCCO3)nc3c2c(=O)n(C)c(=O)n3C)c1 (stereo not drawn) : -4.79% (inactive)

Recorded activity, negative = inhibition (compound "O=C(c1cc(N2CCCCC2)nc2ccccc12)N1CCOCC1" ): 4.94% (inactive)

Record COC(=O)C(NC(C)=O)(Nc1nc2ccc(S(C)(=O)=O)cc2s1)C(F)(F)F (stereo not drawn) , field activity, negative = inhibition: -5.35% (inactive)

# compound CCC1(C)Cc2c(sc(NC(=O)CCC(=O)O)c2C#N)CO1 (stereo not drawn) ; its activity, negative = inhibition = 9.62% (inactive)

Looking up "COc1ccc(C2C(C#N)=C(N)SC(N)=C2C#N)cc1OC" , I found its activity, negative = inhibition recorded as 3.8% (inactive)

// CCOC(=O)C(Oc1ccc(=O)[nH]n1)C(C)=O (stereo not drawn) : activity, negative = inhibition value = 2.15% (inactive)

Entry "CC(C)(C)C1=Nn2c(nnc2-c2ccco2)SC1" , activity, negative = inhibition reported as 8.01% (inactive)

The recorded activity, negative = inhibition for entry "C=CCN(C)CCCNC(=O)/C=N/O" equals 3.74% (inactive)

Record Cc1ccc(N2C(=O)CC(Cn3nc(C)cc3C)C2=O)cc1 (stereo not drawn) . Reported activity, negative = inhibition: 13.4% (inactive)

Looking up "O=c1cc(NCc2ccccc2)nc2n1CCCS2" , I see its activity, negative = inhibition listed as -19.7% (inactive)

Field activity, negative = inhibition (entry "N#C/C(=C\c1c(N2CCC(C(N)=O)CC2)nc2ccccn2c1=O)S(=O)(=O)c1ccccc1" ) reads -1.65% (inactive)

Documented activity, negative = inhibition of "COC(=O)CC1=NC(=O)CS1" : 12.3% (inactive)
